Target: murine Importin α1 with the Importin β binding domain deleted (mImpα1ΔIBB) (mouse, UniProt P52293 70-529)
Assay: fluorescence polarisation; fluorescein-labelled pol β NLS peptide against the concentration of the Impα construct; apparent dissociation constants; as in ref. 56
Details: both partners purified
Ends that are not written are not given here. * marks the point of attachment. FITC = O=C1OC2(c3ccc(O)cc3Oc3cc(O)ccc32)c2ccc(NC(=S)*)cc21
Measured attribute: Kd
Record the result as number plus unit.

Ask: Value lookup for Kd; key = SKRKAPQETLNGGK(FITC) [fluorescein-labeled pol β NLS peptide SKRKAPQETLNGG-Lys(FITC)]
Reply: 3.6 µM
